- target: Aβ40 (Homo sapiens, UniProt P05067)
- Construct: pre-treated Aβ40 (40 μM in 20 mM Tris, pH 7.4)
- Sequence (P05067 672-711 limits assumed): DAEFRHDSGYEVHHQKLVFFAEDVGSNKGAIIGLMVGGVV
- protocolDescription: Thioflavin T (ThT) Aβ aggregation assay
- conditionInfo: 20 μM Aβ40, 37 degrees C
observedProperty: pIC50
In simple prose, pIC50 is minus the logarithm base ten of a concentration in moles per litre.

Reference set, count: 5
CCN(CC)C(=O)c1cccc(-c2ccc([N+](=O)[O-])c(NCc3ccccc3)c2)c1 :: 6.15
NS(=O)(=O)c1cccc(-c2ccc([N+](=O)[O-])c(NCc3ccccc3)c2)c1 :: 4.85
CC1CN(c2ccc([N+](=O)[O-])c(Nc3ccccc3)c2)CC(C)N1C(=O)c1ccccc1 (centres unmarked) :: 5.40
O=C(c1cccc(-c2ccc([N+](=O)[O-])c(NCc3ccccc3)c2)c1)N1CCCCC1 :: 6.48
CN(C)C(=O)c1cccc(-c2ccc([N+](=O)[O-])c(NCc3ccccc3)c2)c1 :: 5.39

Q: Indicate its recorded pIC50; the compound in question is O=[N+]([O-])c1ccc(-c2cccc(-c3nnn[nH]3)c2)cc1NCc1ccccc1
A: 5.87
